# protocol-notes: Inhibitory constant against CK1
# Set-up: species or system Rattus norvegicus
readout-kind: pKi
A value of pKi is the negative decimal logarithm of a concentration given in moles per litre.

C[C@H]1CNCCN1S(=O)(=O)c1cccc2cnccc12 4.00

GET /value?item= CNCCNS(=O)(=O)c1cccc2cnccc12 &field=pKi returns 3.88

* * *

# target-desc: Casein kinase II (Homo sapiens, UniProt P19784+P67870+P68400)
# Sequence (P67870 whole entry): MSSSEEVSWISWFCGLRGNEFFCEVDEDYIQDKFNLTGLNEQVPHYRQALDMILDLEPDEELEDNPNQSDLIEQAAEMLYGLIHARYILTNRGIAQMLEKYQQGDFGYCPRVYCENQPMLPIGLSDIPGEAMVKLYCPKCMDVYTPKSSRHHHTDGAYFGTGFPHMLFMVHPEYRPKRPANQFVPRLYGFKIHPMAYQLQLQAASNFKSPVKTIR
# Sequence (P68400 whole entry): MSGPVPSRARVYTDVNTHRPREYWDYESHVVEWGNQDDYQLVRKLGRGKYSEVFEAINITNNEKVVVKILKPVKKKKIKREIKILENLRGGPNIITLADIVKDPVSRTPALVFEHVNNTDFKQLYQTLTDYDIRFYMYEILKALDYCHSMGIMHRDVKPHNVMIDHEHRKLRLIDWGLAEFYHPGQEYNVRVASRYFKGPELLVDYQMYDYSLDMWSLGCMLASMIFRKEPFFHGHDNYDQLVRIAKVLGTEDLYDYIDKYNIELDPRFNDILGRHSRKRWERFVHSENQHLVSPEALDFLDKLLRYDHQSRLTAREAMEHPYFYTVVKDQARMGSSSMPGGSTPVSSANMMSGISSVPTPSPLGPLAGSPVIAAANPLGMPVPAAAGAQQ
# Sequence (P19784 whole entry): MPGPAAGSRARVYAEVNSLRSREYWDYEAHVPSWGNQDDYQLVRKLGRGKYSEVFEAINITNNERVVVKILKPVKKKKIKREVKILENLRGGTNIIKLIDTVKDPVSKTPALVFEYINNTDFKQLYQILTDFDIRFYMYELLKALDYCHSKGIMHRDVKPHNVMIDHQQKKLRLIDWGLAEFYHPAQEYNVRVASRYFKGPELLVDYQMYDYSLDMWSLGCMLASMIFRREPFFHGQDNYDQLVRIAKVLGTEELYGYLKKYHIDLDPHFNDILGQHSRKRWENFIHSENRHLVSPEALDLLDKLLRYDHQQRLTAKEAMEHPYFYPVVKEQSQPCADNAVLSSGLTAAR
# protocol-notes: Inhibitory constant against CK2
In this section, each of the compounds is paired with its reported Ki.
Reply numerically in µM, unit not repeated.

CNCCNS(=O)(=O)c1cccc2cnccc12 950

Item: C[C@H]1CNCCN1S(=O)(=O)c1cccc2cnccc12 | System: Casein kinase II (Homo sapiens, UniProt P19784+P67870+P68400) | Ki: 780

* * *

In this section, each of the compounds is paired with its reported Ki.
# protocol-notes: Inhibitory constant against cGPK (PKG)
# Set-up: species or system Sus scrofa

C[C@H]1CNCCN1S(=O)(=O)c1cccc2cnccc12 5.8 µM

Attention now shifts to the item below.
GET /value?item= CNCCNS(=O)(=O)c1cccc2cnccc12 &field=Ki returns 0.48 µM

* * *

# target-desc: cAMP-dependent protein kinase alpha-catalytic subunit (Oryctolagus cuniculus, UniProt Q95J97)
# protocol-notes: Inhibitory constant against cAPK (PKA)
readout-kind: Ki (nM)
Reply numerically in nM, unit not repeated.

GET /value?item= CNCCNS(=O)(=O)c1cccc2cnccc12 &field=Ki returns 1200

* * *

# target-desc: Myosin light chain kinase, smooth muscle (Gallus gallus, UniProt P11799)
# Sequence (P11799 whole entry): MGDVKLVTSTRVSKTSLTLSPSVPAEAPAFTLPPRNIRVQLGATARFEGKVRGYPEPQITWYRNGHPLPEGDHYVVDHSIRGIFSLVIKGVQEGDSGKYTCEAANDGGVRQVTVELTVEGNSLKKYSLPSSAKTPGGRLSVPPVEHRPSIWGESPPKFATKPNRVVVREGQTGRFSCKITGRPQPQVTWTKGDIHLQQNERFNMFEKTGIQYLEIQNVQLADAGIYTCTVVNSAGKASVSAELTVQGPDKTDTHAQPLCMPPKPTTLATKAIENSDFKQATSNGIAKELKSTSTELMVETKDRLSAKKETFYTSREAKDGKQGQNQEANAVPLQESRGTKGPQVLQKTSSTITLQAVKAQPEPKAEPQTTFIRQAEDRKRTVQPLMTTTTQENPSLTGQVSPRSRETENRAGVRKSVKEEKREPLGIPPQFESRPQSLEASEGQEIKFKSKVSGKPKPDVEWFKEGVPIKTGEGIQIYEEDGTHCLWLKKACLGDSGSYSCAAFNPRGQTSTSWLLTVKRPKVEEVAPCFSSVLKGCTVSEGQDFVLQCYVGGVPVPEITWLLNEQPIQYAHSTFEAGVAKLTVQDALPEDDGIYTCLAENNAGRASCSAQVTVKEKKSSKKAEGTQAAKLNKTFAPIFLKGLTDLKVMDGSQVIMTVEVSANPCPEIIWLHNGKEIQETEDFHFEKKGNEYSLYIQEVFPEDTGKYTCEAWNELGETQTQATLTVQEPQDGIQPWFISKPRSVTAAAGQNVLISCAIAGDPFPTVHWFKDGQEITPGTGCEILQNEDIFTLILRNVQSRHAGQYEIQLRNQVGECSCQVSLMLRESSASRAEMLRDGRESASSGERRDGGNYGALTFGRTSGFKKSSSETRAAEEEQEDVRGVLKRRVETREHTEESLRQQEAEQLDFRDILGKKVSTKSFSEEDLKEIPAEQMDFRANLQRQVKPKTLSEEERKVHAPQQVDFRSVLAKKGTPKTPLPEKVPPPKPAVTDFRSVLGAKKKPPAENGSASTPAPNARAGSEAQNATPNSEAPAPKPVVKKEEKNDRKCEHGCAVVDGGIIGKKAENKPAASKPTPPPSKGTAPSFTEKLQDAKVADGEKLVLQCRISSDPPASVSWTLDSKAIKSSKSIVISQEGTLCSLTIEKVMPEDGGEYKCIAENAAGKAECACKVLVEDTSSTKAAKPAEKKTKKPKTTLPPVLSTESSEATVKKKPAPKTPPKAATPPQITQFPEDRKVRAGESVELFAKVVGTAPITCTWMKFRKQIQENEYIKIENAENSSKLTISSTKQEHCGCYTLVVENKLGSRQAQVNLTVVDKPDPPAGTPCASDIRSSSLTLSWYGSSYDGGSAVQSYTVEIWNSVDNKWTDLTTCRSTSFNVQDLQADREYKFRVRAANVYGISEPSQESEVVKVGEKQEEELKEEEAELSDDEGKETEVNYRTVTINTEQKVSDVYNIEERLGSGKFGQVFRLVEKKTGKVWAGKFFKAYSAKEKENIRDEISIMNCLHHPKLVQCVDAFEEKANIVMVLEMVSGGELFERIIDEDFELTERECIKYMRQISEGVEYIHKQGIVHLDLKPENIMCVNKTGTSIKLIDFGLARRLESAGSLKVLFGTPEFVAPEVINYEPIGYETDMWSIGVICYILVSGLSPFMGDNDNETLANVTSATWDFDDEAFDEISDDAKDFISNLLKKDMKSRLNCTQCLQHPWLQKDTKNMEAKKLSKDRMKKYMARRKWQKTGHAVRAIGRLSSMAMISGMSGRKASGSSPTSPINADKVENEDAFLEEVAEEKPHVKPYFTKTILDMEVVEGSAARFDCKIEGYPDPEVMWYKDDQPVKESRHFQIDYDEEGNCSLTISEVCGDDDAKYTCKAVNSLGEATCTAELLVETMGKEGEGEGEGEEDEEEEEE
readout-kind: pKi
A value of pKi is the negative decimal logarithm of a concentration given in moles per litre.

GET /value?item= CNCCNS(=O)(=O)c1cccc2cnccc12 &field=pKi returns 4.17

These entries and their values trace back to ChEMBL document CHEMBL1150971.
